target: Adenosine receptor A1 (Homo sapiens, UniProt P30542); assay: Displacement of [3H]DPCPX from human adenosine A1 receptor expressed in CHO cells; assay type: cell-based
Sequence (P30542 whole entry): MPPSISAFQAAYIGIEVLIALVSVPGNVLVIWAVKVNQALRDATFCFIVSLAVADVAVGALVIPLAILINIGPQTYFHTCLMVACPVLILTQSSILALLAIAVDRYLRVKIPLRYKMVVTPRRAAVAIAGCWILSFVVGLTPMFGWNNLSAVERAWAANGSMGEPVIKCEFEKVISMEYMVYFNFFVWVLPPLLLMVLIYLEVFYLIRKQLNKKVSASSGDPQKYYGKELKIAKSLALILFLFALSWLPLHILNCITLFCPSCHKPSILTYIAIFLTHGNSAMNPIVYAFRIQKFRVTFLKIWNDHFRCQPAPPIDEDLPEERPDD
Assignment: determine reported pKi for the given compounds.
Note on pKi: it is the negative log10 of concentration, concentration in mol/L.

According to the records, this compound COc1ccc(C(=O)Nc2nc(-c3ccccc3)nc3nn(CCc4ccccc4)cc23)cc1 displays pKi of 5.62

GET /value?item= O=C(Nc1ccccc1)Nc1nc(-c2ccccc2)nc2nn(CCc3ccccc3)cc12 &field=pKi returns 5.77

The reported value for O=C(Nc1nc(-c2ccccc2)nc2nn(CCc3ccccc3)cc12)c1cccc(Cl)c1 in terms of pKi is 5.98

get_value(item= O=C(Nc1nc(-c2ccccc2)nc2nn(CCc3ccccc3)cc12)c1ccccc1 , readout=pKi) returns 7.57

Recorded pKi (compound Cn1cc2c(NC(=O)c3cccc(Cl)c3)nc(-c3ccccc3)nc2n1 ): 5.97

The compound identified as CNC(=O)OC[C@H]1O[C@@H](n2cnc3c(NCc4cccc(I)c4)nc(Cl)nc32)[C@H](O)[C@@H]1O registered its pKi at 6.92

Quick note, pKi for COc1ccc(C(=O)Nc2nc(-c3ccccc3)nc3nn(C)cc23)cc1 landed at 5.98

pKi reading for Cn1cc2c(N)nc(-c3ccccc3)nc2n1 : 6.23

Sample Nc1nc(-c2ccccc2)nc2nn(CCc3ccccc3)cc12 ; pKi observed: 5.60

Looking up O=C(Nc1ccccc1)Nc1nc(-c2ccccc2)nc2nn(Cc3ccccc3)cc12 , I see its pKi listed as 6.54

Item: Nc1nc(-c2ccccc2)nc2nn(Cc3ccccc3)cc12 | pKi: 6.51

Reference for the values: ChEMBL document CHEMBL1157749
